Conditions: [M-H]-; instrument: DT; single field, calibrated with ESI Low Concentration Tuning Mix (Agilent)

- molecule: "CCCCCC/C=C\\CCCCCCCC(=O)O [PALMITOLEATE]"
  valueUnits: "Å²"
  collision cross section (N2): 167.3
- molecule: "C[C@@](O)(CCO)CC(=O)[O-] [MEVALONATE]"
  valueUnits: "Å²"
  collision cross section (N2): 128.7
- molecule: "Nc1ncnc2c1ncn2[C@@H]1O[C@H](CO)[C@@H](O)[C@H]1O"
  valueUnits: "Å²"
  collision cross section (N2): 157.6
- molecule: "O=C(O)[C@H](O)[C@@H](O)[C@H](O)[C@H](O)COP(=O)(O)O [6-PHOSPHOGLUCONATE]"
  valueUnits: "Å²"
  collision cross section (N2): 143.6
- molecule: "C[N+](C)(C)C[C@@H](CC(=O)[O-])OC(=O)CCCC(=O)O"
  valueUnits: "Å²"
  collision cross section (N2): 165.3

---

A collection of compounds and their measured collision cross section (N2)
Details: [M-H]-; instrument: TW; calibrated with phosphatidylcholines (ESI+) and phosphatidylethanolamines (ESI-)
observable: collision cross section (N2)

- compound: "CCCC/C=C\\CCCCCCCC(=O)OC[C@H](COP(=O)(O)OC[C@@H](O)CO)OC(=O)CCCCCCCCC/C=C\\CCCCCCCCCC [PG(36:2)]"
  measuredResult: "274.9 Å²"
- compound: "CCCCCCCCCCCCCCCCCCCC(=O)OC[C@H](COP(=O)(O)OC[C@@H](O)CO)OC(=O)CCCCCCCCCCCCC [PG(34:0)]"
  measuredResult: "270.8 Å²"
- compound: "CCCC/C=C\\C/C=C\\CCCCCCCC(=O)O[C@H](CO/C=C\\CCCCCCCCCCCCCC)COP(=O)(O)OC[C@@H](O)CO [PG(p33:2)]"
  measuredResult: "263.4 Å²"
- compound: "CCCCCCCC/C=C\\CCCCCCCCCC(=O)O[C@H](COC(=O)CCCCCCCCCCC)COP(=O)(O)OC[C@@H](O)CO [PG(32:1)]"
  measuredResult: "263.3 Å²"
- compound: "CCCCCCCCCCCCCCCCCC(=O)O[C@H](COC(=O)CCCCCCCCCCCC)COP(=O)(O)O [PA(31:0)]"
  measuredResult: "248.2 Å²"
- compound: "CC/C=C\\C/C=C\\C/C=C\\CCCCCCCC(=O)OC[C@H](CO[C@@H]1O[C@H](CO)[C@H](O)C(O)C1O)OC(=O)CCCCC/C=C\\C/C=C\\C/C=C\\CC (stereo partly specified) [MGDG(16:3/18:3)]"
  measuredResult: "269.9 Å²"

---

Details: [M+K]+; instrument: TW; calibrated with polyalanine
As shown below, each of these compounds has a reported collision cross section (N2) value.

- compound: "CCCC[C@@H](C)[C@@H](OC(=O)C[C@@H](CC(=O)O)C(=O)O)[C@H](C[C@@H](C)C[C@H](O)CCCC[C@@H](O)C[C@H](O)[C@H](C)N)OC(=O)C[C@@H](CC(=O)O)C(=O)O [Fumonisin B1]"
  collision cross section (N2), Å²: 269
- compound: "CCCC[C@@H](C)[C@@H](OC(=O)CC(CC(=O)O)C(=O)O)[C@H](C[C@@H](C)C[C@H](O)CCCCCC[C@@H](O)[C@H](C)N)OC(=O)CC(CC(=O)O)C(=O)O (some centres undefined) [Fumonisin B3]"
  collision cross section (N2), Å²: 264.5
- compound: "CCCC[C@@H](C)[C@@H](OC(=O)C[C@@H](CC(=O)O)C(=O)O)[C@H](C[C@@H](C)CCCCCCCC[C@H](O)[C@H](C)N)OC(=O)C[C@@H](CC(=O)O)C(=O)O [Fumonisin B4]"
  collision cross section (N2), Å²: 264.6
- compound: "CC[C@H](C)[C@H]1C(=O)O[C@H](C(C)C)C(=O)N(C)[C@@H]([C@@H](C)CC)C(=O)O[C@H](C(C)C)C(=O)N(C)[C@@H]([C@@H](C)CC)C(=O)O[C@H](C(C)C)C(=O)N1C [Enniatin A]"
  collision cross section (N2), Å²: 264.7
